Reference for the values: PubChem BioAssay (NCI)

- Test system: CAKI-1 renal
- experiment notes: NCI tumour cell line growth inhibition, 48 h; in the data active = GI50 below about 0.43 µM; inactive = the rest
Field 'call' accepts active, inactive

Past entries and their recorded results:
COc1cc(-c2n/c(=C\c3c(O)[nH]c4ccc(Cl)cc34)cc3c2=Nc2ccccc2-3)cc(OC)c1OC = inactive
CCCCN(CCCC)c1ccc(C(=N)c2ccc(N(C)C)cc2)cc1 = active
CN(Cc1cnc(N)nc1N)c1ccc(C(=O)O)cc1 = inactive
COc1cc(-c2nn(-c3ccc(NC(=O)Nc4ccc(Cl)c(Cl)c4)cc3)cc2-c2ccncc2)ccc1Cl = inactive
CC1=CC[C@@H]2C(C)(C)C(=O)CC[C@@]2(C)[C@@H]1COc1ccc2ccc(=O)oc2c1 = inactive

Now let's try a different one.
Qu. Hi, sorry to bother you, what did the test record for COc1cc(/C=N/Nc2ncnc3c2cnn3C(C)C)ccc1O ?
Ans. inactive
